# Test system: UO-31
# test summary: NCI tumour cell line growth inhibition, 48 h
Activity calls are given as the source filed them. Cut-off read from the data, not from the text of the source: active = GI50 up to about 1.1 µM and inactive = higher.
attribute measured: GI50

Worked cases, answers included:
1) CC(C)(CN1CCCCC1)C(/C=C/c1ccc(Cl)c(Cl)c1)=N\NC(=O)N/N=C(/C=C/c1ccc(Cl)c(Cl)c1)C(C)(C)CN1CCCCC1
4.14 µM (inactive)
2) N=C(N)NC(=N)Nc1ccc(S(N)(=O)=O)cc1
> 100 µM (inactive)
3) Cc1cc2nnc(C(N)=O)c(N)c2cc1C
> 100 µM (inactive)
4) BrCC[N+]12CCCN1CCC2
13.8 µM (inactive)
5) COc1ccc(N(C(=O)OC(C)(C)C)[C@@H]2C(C)=C[C@H]([S@@+]([O-])c3ccc(C)cc3)[C@@H]3C(=O)N(C)C(=O)[C@@H]32)cc1
15.1 µM (inactive)
6) C[N+]1(C)C/C(=C\c2ccncc2)C(=O)/C(=C/c2ccncc2)C1
> 100 µM (inactive)
7) CCc1cccc(CC)c1NC(=O)CC1SC(N)=NC1=O (stereo not given)
> 100 µM (inactive)
8) COc1c(C)c2nc3ccccc3nc2c2c(O)ccnc12
> 100 µM (inactive)
9) C=CCOCC1C2CCC3(OCCO3)C21 (stereo not given)
19.1 µM (inactive)

The record that follows has no GI50 shown yet.
Dear colleague, I am looking for the recorded GI50 of the following molecule: Cc1ccc([N+](=O)[O-])cc1S(=O)(=O)Nc1ccc(C2=NN(c3ccc([N+](=O)[O-])cc3[N+](=O)[O-])C(c3cccs3)C2)cc1 (stereo not given)
23.8 µM (inactive)

---

# Tested on: MCF7
# test summary: NCI tumour cell line growth inhibition, 48 h
Calls of active or inactive are those of the source. No stated cut-off is given here; in the data, active = GI50 up to about 1.1 µM and inactive = higher.
GI50 reference

1. COc1cc2cc(c1Cl)N(C)C(=O)C[C@H](OC(=O)[C@H](C)N(C)C(C)=O)[C@]1(C)O[C@H]1[C@H](C)[C@@H]1C[C@@](O)(NC(=O)O1)[C@H](OC)/C=C/C=C(/C)C2
0.018 µM (active)

Would you kindly share the measured GI50 for CC(=O)N1OC(C)CC1Nc1ccc(Br)cc1 (centres undefined) ?
21.5 µM (inactive)

State the recorded GI50 for this entry: "C/C=C(/C)C(=O)O[C@H]1C(C)=C[C@]23C(=O)[C@@H](C=C(COC(C)=O)[C@@H](O)[C@]12O)[C@H]1[C@@H](C[C@H]3C)[C@@]1(C)OC(=O)/C(C)=C\C"
2.35 µM (inactive)

I'd like to know its GI50. The molecule in question is NC(=O)C1N=NSC1NC(=O)c1ccc([N+](=O)[O-])cc1 (centres undefined)
43.5 µM (inactive)

---

# System: NCI-H23
# test summary: NCI tumour cell line growth inhibition, 48 h
The source made the active and inactive calls. Rule as the data show it: active = GI50 up to about 1.1 µM and inactive = higher.
Readings of GI50 for the listed compounds

1) CC(=O)c1c(O)c(C)c(O)c(Cc2c(O)c3c(c(C(=O)/C=C/c4ccccc4)c2O)OC(C)(C)C=C3)c1O
2.37 µM (inactive)

What measured GI50 goes with "O=C(O)CSc1nnc(COc2ccc(Cl)cc2)n1-c1ccccc1" ?
> 100 µM (inactive)

I'd like to know its GI50. The compound in question is COc1cc(OC2OC(COC(=O)c3cc(O)c(O)c(O)c3)C(O)C(O)C2O)ccc1O (stereo not given)
> 100 µM (inactive)

Recorded GI50 of "COc1ccc(-c2nnc(-c3c(C)n(C)n(-c4ccccc4)c3=O)o2)cc1" , please.
> 100 µM (inactive)

---

Let's go through some GI50 measurements on HCT-15 together.
State the value, then name its unit.

Past entries and their recorded results:
1) Cc1ccc([N+](=O)[O-])cc1S(=O)(=O)Nc1ccc(C2=NN(c3ccc([N+](=O)[O-])cc3[N+](=O)[O-])C(c3cccs3)C2)cc1 (centres undefined)
15.4 µM
2) CCN1CCC(O)(c2ccc(OC)cc2)C(C(=O)c2ccc(OC)cc2)C1 (centres undefined)
20.3 µM
3) C/C=C(/C)C(=O)O[C@H]1C(C)=C[C@]23C(=O)[C@@H](C=C(COC(C)=O)[C@@H](O)[C@]12O)[C@H]1[C@@H](C[C@H]3C)[C@@]1(C)OC(=O)/C(C)=C\C
2.96 µM

API: value(readout= GI50, system= HCT-15, query= CC1=NN(c2cccc(S(=O)(=O)O)c2)C2(C1)C(Cl)C(=O)N2c1nc2ccccc2s1 (centres undefined) )
4.04 µM

---

# Test system: RXF 393
# test summary: NCI tumour cell line growth inhibition, 48 h
The source made the active and inactive calls. No stated cut-off is given here; in the data, active = GI50 up to about 1.1 µM and inactive = higher.
Respond only with the outcome that fits, drawn from y = active, n = inactive

Completed entries (count: 5):
1. CSc1nc(-c2ccccc2)nc(C(C#N)C#N)n1
n
2. CC(C(=O)COCc1ccccc1)P1(=O)OC(C)(C)CN1C(C)(C)C (configuration not stated)
n
3. COP(=O)(OC)/C(=C/c1c[nH]c2ccccc12)C(=O)O
n
4. COc1ccc(OC)c2c1C=C[C@H](C1(C)SCCS1)C2C(C)=O (some centres not stated)
n
5. COC(=O)c1ccc(/C=C(\c2ccc([N+](=O)[O-])o2)S(=O)(=O)c2ccc(NC(C)=O)cc2)o1
n

Lab log entry: "CN(C)Cc1cc(C(=O)/C=C/c2cccc(Cl)c2)cc(CN(C)C)c1O" — outcome as called in the assay?
n

Answer briefly: the call reported for "O=C1C(=CNc2ccc([N+](=O)[O-])cc2)C(=O)N(c2ccccc2)C(=O)N1c1ccccc1" in this assay.
n

Write down the call the test reported for this compound. Item: "CC(=O)Oc1cccc2c(/C=N/NC(N)=S)ncc(C)c12"
n

Write down the call the test reported for this compound. Item: "CN(C)C=C1C(=O)c2c(Br)sc(Br)c2C1=O"
n

Tell me the recorded outcome of this test for "CC(C)(CN1CCCCC1)C(/C=C/c1ccc(Cl)c(Cl)c1)=N\NC(=O)N/N=C(/C=C/c1ccc(Cl)c(Cl)c1)C(C)(C)CN1CCCCC1" .
y

// outcome(item) with item = CCOP(=O)(OCC)C1C(CO)OC(n2ccc(=O)[nH]c2=O)C1O (configuration not stated)
n

Please indicate how the test categorized COC(=O)c1ccc2c(c1)C(NC(C)=O)CCc1cc(OC)c(OC)c(OC)c1-2 (configuration not stated) .
y

Fill in: this test's call for "COCCOc1nc(-c2ccccc2)nc2ccccc12" is ___
n

---

# System: 786-0
# test summary: NCI tumour cell line growth inhibition, 48 h
Calls of active or inactive are those of the source. Rule as the data show it: active = GI50 up to about 1.1 µM and inactive = higher.
attribute measured: GI50

For orientation, consider the following solved cases.
1) C/C(=N/NC(=O)c1ccccc1O)c1ccc(/C(C)=N\NC(=O)c2ccccc2O)c2nc3cc(C)c(C)cc3nc12
> 100 µM (inactive)
2) CC(C)(C)C1=CC(C)(n2[nH]c(=O)n(-c3ccccc3)c2=O)C=C(C(C)(C)C)C1=O
> 100 µM (inactive)
3) CN(C)c1ccc(C(=N/N=C2\C(=O)Nc3ccccc32)c2ccc(N(C)C)cc2)cc1
0.859 µM (active)
4) BrCC[N+]12CCCN1CCC2
9.06 µM (inactive)
5) Cc1cc(C)nc(NC(=S)Nc2ccccc2Cl)c1
> 100 µM (inactive)

Requested read-out GI50, target or system 786-0, entry "CSC(=S)NN=C1CCCC1.CSC(=S)NN=C1CCCC1.[Zn+2]"
33.5 µM (inactive)

What reported GI50 corresponds to CCC(C)OC(=O)/C(Br)=C1/OC(=O)c2ccccc2-c2ccccc21 (stereo unspecified) on 786-0?
48.6 µM (inactive)

Give 786-0 GI50 for "NC1=CN(CCCO)C2=N/C(=C\c3ccco3)C(=O)N12"
> 100 µM (inactive)

Given the entry "COc1ccc2cc(/C=N\NC(=O)Nc3cccc4ccccc34)ccc2c1" , what GI50 was observed with 786-0?
12.9 µM (inactive)

I'm curious: which GI50 was measured for N#Cc1ccnc(C(=O)N2CCCC2C(=O)O)c1 (stereo unspecified) tested on 786-0?
> 100 µM (inactive)

GI50 of CCCCC/C=C1\CCC(CN(C)C)C1=O (stereo unspecified) on 786-0?
2.71 µM (inactive)

// lookup GI50 | system=786-0 | key= "O=C(O)CSc1nnc(COc2ccc(Cl)cc2)n1-c1ccccc1"
> 100 µM (inactive)

So what GI50 did "COc1ccc(N(C(=O)OC(C)(C)C)[C@@H]2C(C)=C[C@H]([S@@+]([O-])c3ccc(C)cc3)[C@@H]3C(=O)N(C)C(=O)[C@@H]32)cc1" get with 786-0?
18.1 µM (inactive)

So what GI50 did "NNC(=O)c1ccccc1Nc1ccccc1C(=O)NN" get with 786-0?
> 100 µM (inactive)

What value of GI50 on 786-0 does "Cc1ccc(/N=N/c2c(O)c(C(=O)Nc3ccccc3)cc3ccccc23)c([N+](=O)[O-])c1" have?
> 100 µM (inactive)

Entry COC(=O)C(C(=O)C(=O)Nc1c(Cl)cc([N+](=O)[O-])cc1Cl)c1nc2cc(C)c(C)cc2nc1O (stereo unspecified) , system 786-0: what GI50 was measured?
> 100 µM (inactive)

Item "COc1ccc(/C=N/n2cnc3[nH]c(C)c(Cc4ccccc4)c3c2=N)cc1" with 786-0 - GI50?
> 100 µM (inactive)

Lab request: please report GI50 under test system 786-0 for CC(=O)NC1(C)CCC(C(C)(C)NC(C)=O)CC1 (stereo unspecified)
> 100 µM (inactive)

Requested read-out GI50, target or system 786-0, entry N#CCC(=O)N/N=C1/C(=O)N(c2ccc(Cl)cc2)C(=O)C(=O)C1c1nc2ccccc2s1 (stereo unspecified)
> 100 µM (inactive)

Notebook: pull reported GI50 for 786-0, entry "c1ccc(CCN(Cc2nc3ccccc3[nH]2)Cc2nc3ccccc3[nH]2)cc1"
15.9 µM (inactive)

Could you share what GI50 was measured for "O=C(O)CCC(=O)N1C/C(=C\c2ccccc2)C(=O)/C(=C/c2ccccc2)C1" , tested on 786-0?
2.52 µM (inactive)
